The reported measurements were obtained from PubChem BioAssay AID540299.

- TESTED ON: 1,4-dihydroxy-2-naphthoyl-CoA synthase (Mycobacterium tuberculosis (strain ATCC 25618 / H37Rv)) (UniProt P9WNP5)
- Sequence (P9WNP5 whole entry, looked up): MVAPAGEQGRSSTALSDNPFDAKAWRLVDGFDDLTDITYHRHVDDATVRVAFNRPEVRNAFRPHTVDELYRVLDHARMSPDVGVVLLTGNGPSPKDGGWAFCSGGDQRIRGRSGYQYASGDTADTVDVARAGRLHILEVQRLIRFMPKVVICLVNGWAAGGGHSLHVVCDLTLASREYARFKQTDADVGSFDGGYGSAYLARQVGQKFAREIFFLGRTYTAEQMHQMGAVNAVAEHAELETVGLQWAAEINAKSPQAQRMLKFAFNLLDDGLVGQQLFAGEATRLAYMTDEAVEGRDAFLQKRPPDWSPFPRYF
- ASSAY REMARKS: M. tuberculosis MenB inhibitors, primary screen, biochemical, absorbance (AID 540299)
- MEASUREMENT PARAMETERS: MenB enzyme assay, absorbance read-out; hits give high values; concentration not given here
About 440 (0.44%) of roughly 100,000 compounds were called active. This is one part of a sample in which actives are shown more often than they occur.
RECORDED METRIC: inhibition (%)
Your answer is read as %, so omit the unit and give the number.

Below, 3 compounds whose answers are already recorded.
OC(COc1ccc(Cl)cc1)C(O)C(O)c1cnn(-c2ccccc2)n1 (centres undefined): -25.4
CCCCn1c(N)c(N2CCOCC2)c(=O)n(CC(=O)NCCc2ccccc2)c1=O: 2.85
CC(NCCN1CCOCC1)C(=O)NC1CCCCC1 (centres undefined): 35.5

Query :: Which inhibition value belongs to "CCOC(=O)CCSc1ccccn1" ?
Result :: -3.2

Query :: Try the compound "Cn1c(=O)c(=O)n(C)c2cc(N3CCCCC3)c(NS(=O)(=O)c3ccc(Br)s3)cc21"
Result :: -15.3

Query :: Here is the next compound: "COc1ccc(N(CCC#N)S(=O)(=O)c2ccc(Cl)cc2)cc1"
Result :: 34.8

----------
- TESTED ON: 1,4-dihydroxy-2-naphthoyl-CoA synthase (Mycobacterium tuberculosis (strain ATCC 25618 / H37Rv)) (UniProt P9WNP5)
- ASSAY REMARKS: M. tuberculosis MenB inhibitors, primary screen, biochemical, absorbance (AID 540299)
- MEASUREMENT PARAMETERS: MenB enzyme assay, absorbance read-out; concentration not given here
The campaign covered roughly 100,000 compounds. About 440 (0.44%) were called active. Cut-off read from the data, not from the text of the source: active = inhibition above about 21% (passing the limit was not always enough); inactive = the rest. The sample as a whole holds a higher share of actives than the screen did.
I would appreciate it if you answered using one of these outcomes: 1.0 for active, 0.0 for inactive

Past entries and their recorded results:
CCN(CC)c1ccc2cc(C(N)=O)/c(=N\NC(=O)c3ccccc3)oc2c1: 0.0
O=C(NCc1ccco1)OCC(F)(F)F: 0.0
Cc1ccc2[nH]c(=O)c(C(c3nnnn3C3CCCC3)N(C)C3CCCCC3)cc2c1 (centres undefined): 0.0
CCc1ccc2[nH]c(=O)c(CN(Cc3ccco3)C(=O)c3ccccc3)cc2c1: 0.0
O=C(COC(=O)c1ccc(S(=O)(=O)N2CCOCC2)cc1)Nc1ncc(Cl)cc1Cl: 0.0

Query :: Could you kindly confirm the outcome this assay logged for CCN(CC)C(=O)N1CCc2cc(OC)c(OC)cc2C1c1cc2cc(C)ccc2n(C(=O)N(CC)CC)c1=O (centres undefined) ?
Result :: 0.0

Query :: Also check O=C(O)C1C2C=CC(O2)C1C(=O)NCCc1cccc(Cl)c1 (centres undefined)
Result :: 0.0

Query :: Another molecule to check: CC1C(=O)N2CCCc3cc(S(=O)(=O)NCc4ccc(F)cc4)cc1c32 (centres undefined)
Result :: 0.0

Query :: Follow-up item: "CCCNC(=O)c1cc(C(C)C)on1"
Result :: 0.0

Query :: Next entry: "CC(C)(C)CNC(=S)NN"
Result :: 0.0

----------
- TESTED ON: 1,4-dihydroxy-2-naphthoyl-CoA synthase (Mycobacterium tuberculosis (strain ATCC 25618 / H37Rv))
- ASSAY REMARKS: M. tuberculosis MenB inhibitors, primary screen, biochemical, absorbance (AID 540299)
- MEASUREMENT PARAMETERS: MenB enzyme assay, absorbance read-out; hits give high values; concentration not given here
Among all 100,000 compounds or so, about 440 (0.44%) were called active. What follows is part of a selection rich in actives, with near analogues and random picks from the rest.
Lab note: anything with inhibition at or over -10% counts as MET; the rest go in NOT MET.

Fc1ccc(C=Nc2ccc3c(c2)OCO3)cc1: MET

Query :: Could you tell me if the measured inhibition of "C1CCC(NC2CCCC2)C1" reaches -10% or more?
Result :: NOT MET

Query :: Also need "N#Cc1cc(Cl)c2c(c1)OCCO2" , thanks.
Result :: NOT MET

Query :: Further, for "O=C(COc1ncnc2c1cnn2-c1ccccc1)N1CCc2ccccc21" ?
Result :: NOT MET

Query :: Consider next the molecule O=S1(=O)CCC(NC2CCCCC2)C1 (stereo not given) in the same way.
Result :: MET

Query :: Same question for CCCC1(C(=O)OC)NC(c2ccco2)C2C(=O)N(C)C(=O)C21 (stereo not given) please.
Result :: MET

Query :: // next record CC1(C)CC(=O)C2=C(C1)N=C1SCCC(=O)N1C2c1ccc(Br)cc1 (stereo not given)
Result :: MET

----------
- TESTED ON: 1,4-dihydroxy-2-naphthoyl-CoA synthase (Mycobacterium tuberculosis (strain ATCC 25618 / H37Rv)) (UniProt P9WNP5)
- ASSAY REMARKS: M. tuberculosis MenB inhibitors, primary screen, biochemical, absorbance (AID 540299)
- MEASUREMENT PARAMETERS: MenB enzyme assay, absorbance read-out; hits give high values; concentration not given here
The whole screen tested about 100,000 compounds, of which about 440 (0.44%) were called active. Only a selection was taken, and actives are over-represented in it overall.
RECORDED METRIC: inhibition (%)
// note: answer is a bare numeric in %

Reference set, count: 4
CN(CC(=O)Nc1ccccc1SCC#N)Cc1ccc(-c2ccc(Br)cc2)o1: 30.3
COC(=O)c1c(NC(=O)CCN2CCOCC2)sc2c1CCCC2: -12.6
CCNC(=S)N1CCn2cccc2C1c1cccs1 (stereo not drawn): -29
CC1Sc2nnc(-c3ccc(OC(F)F)cc3)n2N=C1c1ccc(NS(C)(=O)=O)cc1 (stereo not drawn): -9.43

Query :: Consider the molecule shown here: "O=C(c1cccs1)N1CCCn2c(SCc3ccccc3Cl)nnc21" What is its recorded inhibition?
Result :: -21.4

Query :: Would you kindly repeat that for "COCCN=c1scc(-c2ccco2)n1/N=C/c1ccc(OC)cc1" ?
Result :: -60.5

----------
- TESTED ON: 1,4-dihydroxy-2-naphthoyl-CoA synthase (Mycobacterium tuberculosis (strain ATCC 25618 / H37Rv))
- ASSAY REMARKS: M. tuberculosis MenB inhibitors, primary screen, biochemical, absorbance (AID 540299)
- MEASUREMENT PARAMETERS: MenB enzyme assay, absorbance read-out; concentration not given here
Among all 100,000 compounds or so, about 440 (0.44%) were called active. Rule as the data show it: active = inhibition above about 21% (passing the limit was not always enough); inactive = the rest. This excerpt belongs to a sample that is enriched for actives.
Permitted responses: active, inactive

Known results for compounds:
O=C(O)C1CC=CCC1C(=O)NCCc1ccccc1 (centres undefined): active
C/[N+]([O-])=C\c1ccc(-c2ccccc2)cc1: inactive

Query :: Query: recorded result category for "COc1ccc(-c2nn(C)c3ccccc23)cc1" in this test
Result :: inactive

Query :: Param item: "COC(=O)c1ccccc1S(=O)(=O)N1CCC(C(=O)OCC(=O)Nc2ccccc2F)CC1"
Result :: inactive

Query :: Now this one: "Cc1ccc2c(c1)cc(CN(Cc1ccco1)C(=O)c1ccccc1)c1nnnn12"
Result :: active

Query :: What do you have for "O/N=C(/c1ccccc1)c1ccccn1" ?
Result :: inactive

Query :: Moving on to COc1ccc(C2NNC(=S)S2)cc1 (centres undefined)
Result :: inactive

Query :: "O=C(CCn1c(=O)c2cccn2c2ccc(F)cc21)NC1CCCCC1" ?
Result :: inactive

Query :: Check CN1C(=O)C(C(=O)O)C2CC1Oc1ccccc12 (centres undefined) too.
Result :: active

Query :: Also "COc1ccc(-c2nc3sc(-c4ccc(OC)cc4)nc3s2)cc1" ?
Result :: active

Query :: Follow-up item: "CC(C)c1cc(C(=O)O)on1"
Result :: active

Query :: Query "COc1cccc(NC(=O)CC2CCCCC2)c1" next
Result :: inactive

Query :: Okay, and "CN(Cn1nc(Nc2ccccc2F)sc1=S)C1CCCCC1" ?
Result :: inactive

Query :: Now consider "COC(=O)Cc1cnc(NC(=O)CSc2nc(C(C)C)cc(=O)[nH]2)s1" and answer again.
Result :: inactive

----------
Collected inhibition values appear next to each entry.
- TESTED ON: 1,4-dihydroxy-2-naphthoyl-CoA synthase (Mycobacterium tuberculosis (strain ATCC 25618 / H37Rv))
- ASSAY REMARKS: M. tuberculosis MenB inhibitors, primary screen, biochemical, absorbance (AID 540299)
- MEASUREMENT PARAMETERS: MenB enzyme assay, absorbance read-out; hits give high values; concentration not given here
The campaign covered roughly 100,000 compounds. About 440 (0.44%) were called active. For the sample, actives were picked, then their nearest neighbours and some compounds at random.
Respond with the bare value in %.

Oc1ccc(SSc2ccc(O)cc2)cc1: 40.7
O=C(CC(NCCc1ccc(Cl)cc1)C(=O)O)c1ccc(Br)cc1 (stereo not drawn): -5.44
Cc1nnc(NC(=O)CSc2nnc(CNC(=O)c3ccccc3F)n2C)s1: 27.8
COc1ccc(Cc2nnc3n2N=C(N)CS3)cc1: 8.07
COc1cc(C)cc(CN2CCN(S(=O)(=O)c3ccccc3C#N)CC2)c1O: -41.6
Cc1cc(N2CCN(C3CCCCC3)CC2)c2nncn2n1: 0.645
O=C(Nc1ccccc1C(=O)N1CCCC1)Oc1ccccc1: 3.13
O=C(Cn1cnc2ccccc2c1=O)NCCSCc1ccco1: -21.3
CCn1c(SCc2cc(=O)n3ccsc3n2)nnc1-c1cccs1: 9.46
CC1CN(C(=O)COC(=O)c2c(F)cccc2F)CC(C)O1 (stereo not drawn): -14.9

Query :: Any idea what inhibition was measured for O=C1C=C/C(=N\OC(=O)c2ccccc2)C2=C1C1C=CC2C1 (stereo not drawn) ?
Result :: -24.3

Query :: And for COc1ccc(S(N)(=O)=O)cc1C(=O)OC1CCCCC1=O (stereo not drawn) ?
Result :: -12.8

Query :: Field entry: "O=C1NC(c2cccc(F)c2)=N/C1=C/c1cc2c(cc1Cl)OCO2"
Result :: -89
